Cytochrome P450 3A4 (Homo sapiens): recorded AC50 for assorted compounds;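 further: CYP3A4 tested as one member of a cytochrome P450 panel screen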
Sequence (P08684 whole entry): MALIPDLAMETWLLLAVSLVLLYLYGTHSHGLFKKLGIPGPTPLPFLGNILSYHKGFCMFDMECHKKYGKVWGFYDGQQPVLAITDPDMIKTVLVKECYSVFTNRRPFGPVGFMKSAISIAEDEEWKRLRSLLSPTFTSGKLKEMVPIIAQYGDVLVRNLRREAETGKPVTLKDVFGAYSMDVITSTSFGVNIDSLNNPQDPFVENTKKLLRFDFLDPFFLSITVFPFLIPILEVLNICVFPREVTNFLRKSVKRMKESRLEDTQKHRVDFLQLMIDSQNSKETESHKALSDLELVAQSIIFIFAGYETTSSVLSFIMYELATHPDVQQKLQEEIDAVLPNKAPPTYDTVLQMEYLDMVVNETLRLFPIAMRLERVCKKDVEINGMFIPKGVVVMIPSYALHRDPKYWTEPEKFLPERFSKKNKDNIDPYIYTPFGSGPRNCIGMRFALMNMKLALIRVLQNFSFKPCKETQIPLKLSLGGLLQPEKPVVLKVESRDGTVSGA

AC50 for Cytochrome P450 3A4 (Homo sapiens) with input CCNc1ncc2nc(-c3cccs3)c(=O)n(C)c2n1 equals 12.6 µM (inconclusive)

Measured AC50 (Cytochrome P450 3A4 (Homo sapiens)), entry O=C(c1ccccc1)C1CN(c2ccccc2)CC1c1ccc(Cl)cc1 (stereo not drawn) : 8.91 µM (inconclusive)

The observed AC50 for Cc1ccc(SCCNC(=O)c2ccccc2)cc1 when tested with Cytochrome P450 3A4 (Homo sapiens) stands at 12.6 µM (inconclusive)

Cited source: ChEMBL document CHEMBL1201862
